// provenance: PubChem BioAssay AID179

Reported values of pIC50 for individual entries
# Tested on: CEM cells HIV-1 protection, formazan growth assay
# assay text: NCI AIDS Antiviral Assay
# run conditions: measured here: growth of uninfected CEM cells
pIC50: −log10 of the molar value.

>  <molecule>
CSc1nc(=O)cnn1C

>  <pIC50>
< 3.70

$$$$
>  <molecule>
CCC1=CCN(c2cc(C)ccn2)OC1c1ccccc1 (stereo not given)

>  <pIC50>
< 4.45

$$$$
>  <molecule>
C#CCNCC(=O)O

>  <pIC50>
< 3.70

$$$$
>  <molecule>
[CH3][Ge]([CH3])([CH2]CC#N)[S]c1ccccc1

>  <pIC50>
4.70

$$$$
>  <molecule>
CCN(CC)c1ccc(/C=C2/C=Cc3ccccc32)cc1

>  <pIC50>
< 5.14

$$$$
>  <molecule>
CC(C)(C)[Si](C)(C)OCC1OC(n2ccc(=O)[nH]c2=O)C/C1=N/O (stereo not given)

>  <pIC50>
4.13

$$$$
>  <molecule>
O=C1OC(=O)N2CSCC12 (stereo not given)

>  <pIC50>
< 2.80

$$$$
>  <molecule>
COc1ccccc1/C=C1\N=C(c2ccccc2)OC1=O

>  <pIC50>
4.76

$$$$
>  <molecule>
CC(=O)OC1(C#N)CC2OC1C1C2N1C(=O)c1ccccc1 (stereo not given)

>  <pIC50>
< 3.50

$$$$
>  <molecule>
CC1(C)OCC2OC3([C@H]4OC(C)(C)O[C@@H]4CO)OC(C)(C)OC3C2O1 (stereo not given in full)

>  <pIC50>
< 3.70

$$$$
